molecular target: Human CD33 R69G (human, UniProt P20138 18-259); assay: SPR captured Fab
Sequence (P20138 18-259 R69G): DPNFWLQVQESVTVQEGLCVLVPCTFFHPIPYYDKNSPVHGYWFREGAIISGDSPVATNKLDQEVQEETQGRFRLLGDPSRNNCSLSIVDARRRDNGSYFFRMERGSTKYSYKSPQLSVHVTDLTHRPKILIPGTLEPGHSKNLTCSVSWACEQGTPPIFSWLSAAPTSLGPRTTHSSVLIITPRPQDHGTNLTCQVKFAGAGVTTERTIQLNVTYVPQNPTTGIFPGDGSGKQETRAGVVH
Assay Endpoint: pKd
Conceptually, pKd converts a concentration in mol/L into minus its log10.

Solved cases below.
Binder: ADI-11812 Fab (Fab, V domains shown, Fab fragment; also called Ab24) VH: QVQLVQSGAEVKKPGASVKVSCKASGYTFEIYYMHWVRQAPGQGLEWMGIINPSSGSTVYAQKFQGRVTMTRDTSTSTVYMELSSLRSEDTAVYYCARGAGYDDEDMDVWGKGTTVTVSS VL: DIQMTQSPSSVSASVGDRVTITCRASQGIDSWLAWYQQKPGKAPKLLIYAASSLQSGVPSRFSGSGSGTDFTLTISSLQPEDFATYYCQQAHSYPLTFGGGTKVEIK
pKd: 8.17
--
Binder: ADI-11828 Fab (Fab, V domains shown, Fab fragment; also called Ab27) VH: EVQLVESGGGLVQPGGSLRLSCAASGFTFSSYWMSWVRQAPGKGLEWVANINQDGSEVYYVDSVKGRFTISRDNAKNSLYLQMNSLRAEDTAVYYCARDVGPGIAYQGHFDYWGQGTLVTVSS VL: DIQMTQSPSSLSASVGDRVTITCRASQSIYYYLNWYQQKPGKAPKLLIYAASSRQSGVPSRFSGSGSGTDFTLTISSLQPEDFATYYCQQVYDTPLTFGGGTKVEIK
pKd: 8.22

Switching to the query record.
I have this binder here, ADI-10161 Fab (Fab, V domains shown, Fab fragment; also called Ab16) VH: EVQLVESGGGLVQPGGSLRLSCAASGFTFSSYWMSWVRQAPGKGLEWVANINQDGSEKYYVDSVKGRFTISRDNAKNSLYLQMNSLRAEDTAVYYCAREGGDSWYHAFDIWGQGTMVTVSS VL: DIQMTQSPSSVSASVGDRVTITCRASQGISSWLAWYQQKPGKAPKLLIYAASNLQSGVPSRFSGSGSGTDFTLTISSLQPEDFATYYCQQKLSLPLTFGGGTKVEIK , and I need its recorded pKd. 7.31
